# Tested on: myeloid leukemia patient primary cells Pat.7
# Test: cell viability (% survival relative to DMSO control); higher = less cytotoxic
# Test Context: 1 nM; 72 h
Assign cell viability to each entry below.
One number for each entry, in %.

Study these solved cases before continuing.
Structure String: CCN(CC)C(=S)SSC(=S)N(CC)CC
Tgt: myeloid leukemia patient primary cells Pat.7
Measure Name: cell viability
Test Value: 83.4

Structure String: CC(C)(C)c1ccc(S(=O)(=O)NCc2ccc(C(=O)Nc3cccnc3)cc2)cc1
Tgt: myeloid leukemia patient primary cells Pat.7
Measure Name: cell viability
Test Value: 80.1

Structure String: Cc1c2c(=O)n(-c3ccccc3Cl)[nH]c2cc(=O)n1Cc1ccccn1
Tgt: myeloid leukemia patient primary cells Pat.7
Measure Name: cell viability
Test Value: 13.2

Structure String: O=C1C(SCCO)=C(SCCO)C(=O)c2ccccc21
Tgt: myeloid leukemia patient primary cells Pat.7
Measure Name: cell viability
Test Value: 37.3

Structure String: O=C(/C=C/c1ccc(O)c(O)c1)OCCc1ccccc1
Tgt: myeloid leukemia patient primary cells Pat.7
Measure Name: cell viability
Test Value: 74.4

Structure String: c1cc(-c2cnn3cc(-c4ccc(OCCN5CCCCC5)cc4)cnc23)ccn1
Tgt: myeloid leukemia patient primary cells Pat.7
Measure Name: cell viability
Test Value: 25.4

// cell viability lookup, compound = "O=c1cc(N2CCOCC2)oc2c(-c3ccccc3)cccc12" , result: 84.4

Origin of values: the supplement of paper PMC8671470
